The origin of these recorded values is ChEMBL document CHEMBL5131393.

test system: TZM; experiment: Cytotoxicity against human TZM-bl cells assessed as reduction in cell viability measured after 3 days by XTT assay; assay type: functional; conditions: 72 h, time 3 day
Assay endpoint: CC50 (µM)
Give your result in µM as a bare value.

# input Please give measured CC50 of the following entry: "Cc1cc(-c2ccc(C(F)(F)F)cn2)[nH]c1C(=O)N[C@@H](CN)c1ncc(CO)s1"
# output 109

# input Please give measured CC50 of the following entry: "Cc1nc([C@H](CN)NC(=O)c2ccc(-c3ccc(Cl)c(F)c3)[nH]2)sc1CO"
# output 40.5

# input Please give measured CC50 of the following entry: "Cc1ccc(-c2ccc(C(=O)N[C@H](CN)c3ncc(CO)s3)[nH]2)cc1F"
# output 38.8

# input Please give measured CC50 of the following entry: "Cc1cc(-c2ccc(C(F)(F)F)cn2)[nH]c1C(=O)N[C@H](CN)c1nc(CO)cs1"
# output 85

# input Please give measured CC50 of the following entry: "CC1(C)CC(NC(=O)C(=O)Nc2ccc(Cl)cc2)CC(C)(C)N1"
# output 60
